- tgt: human GPR120 (Homo sapiens (Human), UniProt Q5NUL3)
- Sequence (Q5NUL3 whole entry): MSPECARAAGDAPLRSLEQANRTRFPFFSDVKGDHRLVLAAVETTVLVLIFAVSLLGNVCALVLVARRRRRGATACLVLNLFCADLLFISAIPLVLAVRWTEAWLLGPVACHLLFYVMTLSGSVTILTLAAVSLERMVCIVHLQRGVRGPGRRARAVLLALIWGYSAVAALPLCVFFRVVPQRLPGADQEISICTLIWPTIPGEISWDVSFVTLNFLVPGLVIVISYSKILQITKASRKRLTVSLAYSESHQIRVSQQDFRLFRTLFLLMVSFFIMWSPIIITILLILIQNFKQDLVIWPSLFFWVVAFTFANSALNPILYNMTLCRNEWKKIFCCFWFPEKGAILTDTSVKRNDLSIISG
- assayNotes: GPR120 pERK AlphaScreen SureFire Assay (human GPR120 pERK assay)
- protocolConditions: CHO cells stably transfected with short form of human GPR120
- Protocol: GPR120 activity was monitored by measuring phosphorylation of ERK (pERK), since G protein receptors are known to activate the ERK signaling cascade either directly and/or through recruitment of arrestin that serves as a scaffold for downstream signaling events. […] The media was then dumped and cells lysed with 20 μL of 1× Lysis buffer from the AlphaScreen SureFire Phospho-ERK 1/2 Kit (Perkin Elmer Cat. #6760617M). […] After correcting for background, EC50 values were determined. […]
For each entry below, report its pEC50 value.
Lab note — pEC50 values are minus log10 of concentrations in M.

Prompt line: Which pEC50 is listed for O=C(O)[C@@H]1C[C@H]1COc1ccc(-c2cc(Oc3ccc(F)cc3)ccc2F)cc1 (racemic) ?
Response line: 6.57

Prompt line: Which pEC50 is listed for CC(C)Oc1ccc(F)c(-c2ccc(OC[C@@H]3C[C@H]3C(=O)O)c(F)c2)c1 (single isomer, unassigned) [Example 63] ?
Response line: 6.74

Prompt line: Which pEC50 is listed for O=C(O)[C@@H]1C[C@H]1COc1ccc(-c2cc(OC(F)(F)F)ccc2Cl)cc1 (racemic) ?
Response line: 6.30

Prompt line: Which pEC50 is listed for Cc1ccc(Oc2cc(F)c(F)c(-c3ccc(OCC4CC4C(=O)O)c(F)c3)c2)cc1F (racemic) [Example 107] ?
Response line: 6.51

###

- tgt: human GPR120 (Homo sapiens (Human))
- assayNotes: GPR120 pERK AlphaScreen SureFire Assay (human GPR120 pERK assay)
- protocolConditions: CHO cells stably transfected with short form of human GPR120
Hi! Could you tag entries with EC50 below 800 nM as met, and those at or above as not met? Much appreciated.

Prompt line: Find out if reported EC50 for O=C(O)C1CC1COc1ccc(-c2cc(OC(F)(F)F)ccc2F)cc1 (single isomer, unassigned) [Example 53] is less than 800 nM
Response line: met

Prompt line: Find out if reported EC50 for CC(C)Oc1cc(Cl)cc(-c2ccc(OC[C@@H]3C[C@H]3C(=O)O)cc2)c1 (racemic) is less than 800 nM
Response line: met

Prompt line: Find out if reported EC50 for CC(C)Oc1cc(F)c(F)c(-c2ccc(OC[C@@H]3C[C@H]3C(=O)O)cc2F)c1 (racemic) is less than 800 nM
Response line: not met

Prompt line: Find out if reported EC50 for CC1(C)Cc2cc(Cl)cc(-c3ccc(CC[C@@H]4C[C@H]4C(=O)O)cc3)c2O1 (single isomer, unassigned) is less than 800 nM
Response line: not met

Prompt line: Find out if reported EC50 for O=C(O)[C@H]1CC1COc1ccc(-c2cc(Oc3cccc(F)c3)cnc2Cl)cc1 (stereo partly shown) is less than 800 nM
Response line: met

Prompt line: Find out if reported EC50 for CC(C)Oc1ccc(Cl)c(-c2ccc(CC[C@@H]3C[C@H]3C(=O)O)cc2)c1 (relative stereo) is less than 800 nM
Response line: not met

###

- tgt: human GPR120 (Homo sapiens (Human))
- assayNotes: GPR120 pERK AlphaScreen SureFire Assay (human GPR120 pERK assay)
- protocolConditions: CHO cells stably transfected with short form of human GPR120
pEC50: −log10 of the molar value.
Tag: Met if measured pEC50 is not below 6, Not met if it is.

Prompt line: Entry CC(C)Oc1cc(-c2ccc(OC[C@@H]3C[C@H]3C(=O)O)cc2)cc(C(F)(F)F)c1 (racemic) : is its pEC50 no less than 6?
Response line: Not met

Prompt line: Entry CC(C)Oc1cc(Cl)cc(-c2ccc(OC[C@@H]3C[C@H]3C(=O)O)c(F)c2)c1 (single isomer, unassigned) : is its pEC50 no less than 6?
Response line: Met

Prompt line: Entry O=C(O)[C@@H]1C[C@@H]1COc1ccc(-c2cc(Oc3ccccc3)ccc2F)cc1 (single isomer, unassigned) [Example 5] : is its pEC50 no less than 6?
Response line: Not met

Prompt line: Entry COc1cc(Cl)cc(-c2ccc(CC[C@@H]3C[C@H]3C(=O)O)cc2)c1 (racemic) : is its pEC50 no less than 6?
Response line: Not met

Prompt line: Entry O=C(O)[C@@H]1C[C@H]1COc1ccc(-c2cc(OCC3CC3)ccc2F)cc1 (racemic) : is its pEC50 no less than 6?
Response line: Met

Prompt line: Entry CC(C)Oc1ccc(F)c(-c2ccc(OC[C@H]3C[C@H]3C(=O)O)cc2)c1 (single isomer, unassigned) : is its pEC50 no less than 6?
Response line: Not met

Prompt line: Entry CC(C)Oc1cc(F)c(F)c(-c2ccc(OC[C@@H]3C[C@H]3C(=O)O)c(F)c2)c1 (racemic) [Example 65] : is its pEC50 no less than 6?
Response line: Met

Prompt line: Entry O=C(O)[C@@H]1C[C@H]1COc1ccc(-c2cc(Oc3cc(F)cc(F)c3)ccc2F)cc1 (relative stereo) : is its pEC50 no less than 6?
Response line: Met

Prompt line: Entry O=C(O)[C@@H]1C[C@H]1CCc1ccc(-c2cccc(Oc3ccccc3)c2)cc1 (racemic) : is its pEC50 no less than 6?
Response line: Met

Prompt line: Entry Cc1ccc(Oc2ccc(F)c(-c3ccc(OC[C@@H]4C[C@H]4C(=O)O)cc3)c2)cn1 (racemic) : is its pEC50 no less than 6?
Response line: Met

###

- tgt: human GPR120 (Homo sapiens (Human))
- assayNotes: GPR120 pERK AlphaScreen SureFire Assay (human GPR120 pERK assay)
- Assay type: cell-based
- protocolConditions: CHO cells stably transfected with short form of human GPR120
For each entry below, report its EC50 value.
Write down the numeric answer in nM and omit the unit.

Prompt line: Which EC50 is listed for CC(C)Oc1ccc(F)c(-c2ccc(CC[C@@H]3C[C@H]3C(=O)O)cc2)c1 (racemic) [Example 30] ?
Response line: 320

Prompt line: Which EC50 is listed for Cc1ccc(Oc2ccc(F)c(-c3ccc(OCC4C[C@H]4C(=O)O)cc3)c2)cn1 (stereo partly shown) ?
Response line: 190

Prompt line: Which EC50 is listed for CC(C)Oc1ccc(F)c(-c2ccc(OC[C@@H]3C[C@H]3C(=O)O)c(F)c2)c1 (racemic) [Example 62] ?
Response line: 310

Prompt line: Which EC50 is listed for CC(C)Oc1ccc(F)c(-c2ccc(OC[C@@H]3C[C@H]3C(=O)O)cc2)c1 (single isomer, unassigned) [Example 3] ?
Response line: 470

###

For each entry below, report its EC50 value.
- tgt: human GPR120 (Homo sapiens (Human))
- assayNotes: GPR120 pERK AlphaScreen SureFire Assay (human GPR120 pERK assay)
- protocolConditions: CHO cells stably transfected with short form of human GPR120
Write down the numeric answer in µM and omit the unit.

Prompt line: Give EC50 (human GPR120 (Homo sapiens (Human))) of the following compound: CC(C)Oc1ccc(F)c(-c2ccc(CO[C@@H]3C[C@H]3C(=O)O)cc2)c1 (relative stereo)
Response line: 2.65

Prompt line: Give EC50 (human GPR120 (Homo sapiens (Human))) of the following compound: O=C(O)[C@H]1C[C@H]1COc1ccc(-c2cc(Oc3ccccc3)ccc2F)cc1 (single isomer, unassigned)
Response line: 0.41

Prompt line: Give EC50 (human GPR120 (Homo sapiens (Human))) of the following compound: CC(C)Oc1ccc(F)c(-c2ccc(COC[C@@H]3C[C@H]3C(=O)O)cc2)c1 (racemic)
Response line: 0.44

Prompt line: Give EC50 (human GPR120 (Homo sapiens (Human))) of the following compound: CC(C)Oc1ccc(F)c(-c2ccc(OC[C@H]3C[C@@H]3C(=O)O)cc2)c1 (single isomer, unassigned)
Response line: 0.25

###

For each entry below, report its log10 EC50 value.
- tgt: human GPR120 (Homo sapiens (Human))
- assayNotes: GPR120 pERK AlphaScreen SureFire Assay (human GPR120 pERK assay)
- protocolConditions: CHO cells stably transfected with short form of human GPR120
Remember, log10 of EC50, in nM.

Prompt line: Which log10 EC50 is listed for O=C(O)[C@@H]1C[C@H]1COc1ccc(-c2cc(OC3CCC3)ccc2F)cc1 (racemic) [Example 94] ?
Response line: 2.15

Prompt line: Which log10 EC50 is listed for CC(C)COc1cc(F)cc(-c2ccc(OC[C@@H]3C[C@H]3C(=O)O)cc2)c1 (racemic) [Example 72] ?
Response line: 3.19

Prompt line: Which log10 EC50 is listed for O=C(O)[C@@H]1C[C@@H]1COc1ccc(-c2cc(Oc3ccccc3)ccc2F)cc1 (racemic) [Example 4] ?
Response line: 2.67

Prompt line: Which log10 EC50 is listed for CC1(C)Cc2c(cc(F)cc2-c2ccc(OC[C@@H]3C[C@H]3C(=O)O)cc2)O1 (racemic) [Example 20] ?
Response line: 3.00

Prompt line: Which log10 EC50 is listed for O=C(O)[C@@H]1C[C@H]1COCc1ccc(-c2cc(Oc3ccccc3)ccc2F)cc1 (racemic) [Example 25] ?
Response line: 2.99

Prompt line: Which log10 EC50 is listed for O=C(O)[C@H]1C[C@@H]1COc1ccc(-c2cc(Oc3ccccc3)ccc2F)cc1F (racemic) [Example 9] ?
Response line: 1.90

Prompt line: Which log10 EC50 is listed for CC(C)Oc1ccc(Cl)c(-c2ccc(OC[C@@H]3C[C@H]3C(=O)O)cc2)c1 (racemic) [Example 119] ?
Response line: 2.71

Prompt line: Which log10 EC50 is listed for CC(C)Sc1ncc(C(F)(F)F)cc1-c1ccc(OC[C@@H]2C[C@H]2C(=O)O)cc1 (racemic) [Example 69] ?
Response line: 4.03

Prompt line: Which log10 EC50 is listed for CC(C)Oc1cc(-c2ccc(OC[C@@H]3C[C@H]3C(=O)O)cc2)c(F)cn1 (racemic) [Example 70] ?
Response line: 3.38

Prompt line: Which log10 EC50 is listed for Cc1ccc(Oc2ccc(F)c(-c3ccc(OCC4CC4C(=O)O)c(F)c3)c2)cc1F (racemic) [Example 100] ?
Response line: 2.41

Prompt line: Which log10 EC50 is listed for CC1(C)Cc2c(ccc(F)c2-c2ccc(OCC3CC3C(=O)O)cc2)O1 (stereo not drawn) [Example 22] ?
Response line: 3.10

Prompt line: Which log10 EC50 is listed for COc1ccc(OC(F)(F)F)cc1-c1ccc(CC[C@@H]2C[C@H]2C(=O)O)cc1 (racemic) [Example 79] ?
Response line: 3.16

Prompt line: Which log10 EC50 is listed for O=C(O)[C@@H]1C[C@H]1COc1ccc(-c2cc(Oc3ccccc3)cnc2Cl)cc1 (racemic) [Example 110] ?
Response line: 2.63

Prompt line: Which log10 EC50 is listed for Cc1nn(Cc2ccccc2)cc1-c1ccc(OC[C@@H]2C[C@H]2C(=O)O)cc1 (racemic) [Example 84] ?
Response line: 3.63

Prompt line: Which log10 EC50 is listed for Cc1ccc(Oc2cc(F)c(F)c(-c3ccc(OCC4CC4C(=O)O)c(F)c3)c2)cc1F (single isomer, unassigned) [Example 109] ?
Response line: 2.41

Value source: patent US9938222B2
